# PROTOCOL_DESCRIPTION: protection against thapsigargin ER stress killing – CSM14.1 cells, ATP luminescence, primary screen (AID 1010);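 also: cell death triggered by about 15 µM thapsigargin; ATP read 24 h after thapsigargin was added; plate controls were thapsigargin with DMSO for no effect and DMSO without thapsigargin for full effect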
# SETUP_CONDITIONS: CSM14.1 thapsigargin ER stress survival, stronger effect = higher value, screened at 15 µg/mL (by protocol)
Hit rate of the full screen: of about 48,000 compounds, about 160 (0.33%) were called active. What follows is part of a selection rich in actives, with near analogues and random picks from the rest.
Measured relative survival (cellular ATP) of individual entries
Give the value in % but do not write % after it.

Below, 3 compounds whose answers are already recorded.
> print(dat)
                                   compound                    assay.endpoint  value.measured
1  COc1cc(OC)c(C2NC(=S)NC(C)=C2C(=O)Nc2ccc(Cl)cc2)cc1OC (configuration not stated)  relative survival (cellular ATP)             7.2
2         CS(=O)(=O)N1CCN(Cc2ccc(Br)cc2)CC1  relative survival (cellular ATP)            -1.6
3  COc1ccccc1C(=O)NN1C(=O)/C(=C2/C(=O)N(CC(=O)O)c3ccccc32)SC1=S  relative survival (cellular ATP)            25.3

Exam item: Query: relative survival (cellular ATP); subject: CCOCCOCCN1C(=O)c2ccccc2C1=O
Marked response: 6.5

Exam item: Do the same for Cc1nnc(N2C(=O)c3ccc(-c4nc5ccccc5c(=O)o4)cc3C2=O)s1 please
Marked response: 5.9

Exam item: Consider next the compound O=C(Nc1cccc(Br)c1)c1ccc(N2C(=O)c3cccnc3C2=O)cc1 in the same way.
Marked response: 4.6

Exam item: Field entry: CN(C1=NS(=O)(=O)c2ccccc21)c1ccccc1
Marked response: 3.5

----------
# PROTOCOL_DESCRIPTION: protection against thapsigargin ER stress killing – CSM14.1 cells, ATP luminescence, primary screen (AID 1010);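 also: cell death triggered by about 15 µM thapsigargin; ATP read 24 h after thapsigargin was added; plate controls were thapsigargin with DMSO for no effect and DMSO without thapsigargin for full effect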
# SETUP_CONDITIONS: CSM14.1 thapsigargin ER stress survival, stronger effect = higher value, screened at 15 µg/mL (by protocol)
Screen size: about 48,000 compounds; about 160 (0.33%) were called active. The list comes from a sample in which actives are over-represented; it also holds close analogues and randomly drawn compounds.
ASSAY_ENDPOINT: relative survival (cellular ATP) (%)
Output spec: scalar in %, unitless text.

A selection of reference data follows.
> print(dat)
                                    compound  value.measured
 1  COc1ccc(CN2CCN(C(=O)c3cccc(Cl)c3)CC2)cc1OC             2.9
 2  O=C1S/C(=C/c2ccc(-c3ccc(Cl)cc3Cl)o2)C(=O)N1c1ccccc1               7
 3  O=C(CSc1nnc(-c2cccs2)n1-c1ccccc1)c1cccc([N+](=O)[O-])c1            -3.1
 4  O=C(/C=C/c1ccccc1Cl)c1ccc(NC(=O)c2cccs2)cc1             1.3
 5              Cc1ccc(C(=O)Nc2ccc(Cl)cc2)o1             2.1
 6  COc1cc(/C=N/n2cnnc2)cc(Br)c1OCCOc1ccc(C(C)(C)C)cc1             6.5
 7  CC1=NN(c2ccc(S(N)(=O)=O)cc2)C(=O)/C1=C\c1ccc(-c2cc([N+](=O)[O-])ccc2C)o1            -4.8
 8  O=C(NCc1cccnc1)c1cnn2c(C(F)(F)F)cc(-c3cccs3)nc12             2.5
 9  NS(=O)(=O)c1cccc(C(=O)Nc2ccc([N+](=O)[O-])cc2)c1             4.7
10  O=[N+]([O-])c1ccc(C2Nc3ccc(Br)cc3C3C=CCC32)cc1 (stereo unspecified)             6.4

Exam item: Param item = C/C(=N\NC(=O)c1cccc([N+](=O)[O-])c1)c1cccnc1 ; retrieve measured relative survival (cellular ATP).
Marked response: 2.9

Exam item: Also C=CCOc1cccc(/C=N/NS(=O)(=O)c2ccc(Cl)cc2)c1 ?
Marked response: 3.1

Exam item: How about this compound: CN1C(=O)C(=Cc2cc(Br)c(O)c(I)c2)C(=O)N(C)C1=O
Marked response: -1

Exam item: Consider next the compound CC(=O)c1c(-c2ccccc2)c2cc(C)ccc2[nH]c1=O in the same way.
Marked response: -1.1

Exam item: // same read-out, input: O=C(NC1CCCCCC1)c1ccc([N+](=O)[O-])o1
Marked response: -27.9

Exam item: Lookup Cc1cc(NC(=O)COC(=O)/C=C/c2ccc([N+](=O)[O-])cc2)no1
Marked response: 1.8

----------
# PROTOCOL_DESCRIPTION: protection against thapsigargin ER stress killing – CSM14.1 cells, ATP luminescence, primary screen (AID 1010);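 also: cell death triggered by about 15 µM thapsigargin; ATP read 24 h after thapsigargin was added; plate controls were thapsigargin with DMSO for no effect and DMSO without thapsigargin for full effect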
# SETUP_CONDITIONS: CSM14.1 thapsigargin ER stress survival, screened at 15 µg/mL (by protocol)
Among all 48,000 compounds or so, about 160 (0.33%) were called active.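 How the source made its calls: active means survival measured by cellular ATP above 50% at 15 µg/ml in the first screen; inactive means the rest.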 What follows is part of a selection rich in actives, with near analogues and random picks from the rest.
Please reply with one of these outcomes: active, inactive

# example entries with known answers
> print(dat)
                                   compound  classification
1  Cc1ccc(N(Cc2c(O)ccc3ccccc23)C(=O)c2cccc([N+](=O)[O-])c2)cc1        inactive
2  COc1cc(OC)cc(C(=O)Nc2ccc3nn(-c4ccc(F)cc4)nc3c2)c1        inactive
3  COc1ccc(NC(=O)c2cccc(N3C(=O)c4ccc(C(=O)Nc5ccc(OC)cc5)cc4C3=O)c2)cc1        inactive
4          COc1cc(OC)cc(C(=O)N2CCN(C)CC2)c1        inactive
5  COc1cc(NC(=O)COc2ccc(Br)cc2C(C)(C)C)c(OC)cc1Cl        inactive

Exam item: Tell me the recorded outcome of this test for CCOc1c(Br)cc(/C=C2/C(=O)NN(c3ccccc3)C2=O)cc1OC .
Marked response: inactive

Exam item: Moving on to CC(NC(=O)C(F)(Cl)C(F)(F)F)c1ccccc1 (stereo unspecified)
Marked response: inactive

Exam item: Same for CC(N=Cc1ccccc1O)C12CC3CC(CC(O)(C3)C1)C2 (stereo unspecified)
Marked response: inactive

Exam item: // repeat for O=C(NCCC1=CCCCC1)c1cc(Cl)ccc1[N+](=O)[O-] and report
Marked response: inactive

Exam item: Try the compound COC(=O)C(NC(=O)CCC1CCCCC1)C12CC3CC(CC(C3)C1)C2 (stereo unspecified)
Marked response: inactive

Exam item: Cool, now Cc1cccc(C)c1OCC(=O)Nc1sc2c(c1C(N)=O)CCC2
Marked response: inactive

Exam item: Lookup CCOc1nc(-c2ccccc2)cc(-c2ccc(Br)cc2)n1
Marked response: inactive

Exam item: Repeat with O=C(NNC(=O)c1cc(NC(=O)c2ccc([N+](=O)[O-])cc2)cc(C(=O)NNC(=O)c2ccccc2)c1)c1ccccc1
Marked response: inactive

Exam item: Item: COC(=O)C1=C(C)NC2=C(C(=O)CC(c3ccc(OC)c(OC)c3)C2)C1c1ccccc1OCc1ccccc1 (stereo unspecified)
Marked response: active

----------
# PROTOCOL_DESCRIPTION: protection against thapsigargin ER stress killing – CSM14.1 cells, ATP luminescence, primary screen (AID 1010);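 also: cell death triggered by about 15 µM thapsigargin; ATP read 24 h after thapsigargin was added; plate controls were thapsigargin with DMSO for no effect and DMSO without thapsigargin for full effect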
# SETUP_CONDITIONS: CSM14.1 thapsigargin ER stress survival, screened at 15 µg/mL (by protocol)
Among all 48,000 compounds or so, about 160 (0.33%) were called active.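 Rule for the calls: active = survival measured by cellular ATP above 50% at 15 µg/ml in the first screen; inactive = the rest.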 The sample holds actives, similar compounds and a random draw of the others, so the mix is not that of the screen.
I would appreciate it if you answered using one of these outcomes: active, inactive

Observe how each entry below is paired with its result.
> print(dat)
                                   compound  classification
1  CCCOc1ccc(/C=C2\C(=O)NN(c3ccccc3)C2=O)cc1OC        inactive
2  CCCCOc1ccccc1C1Nc2ccccc2NC2=C1C(=O)CC(c1ccc(OC)c(OC)c1)C2 (stereo not given)          active
3  COc1ccc(C2CC(=O)C3=C(C2)Nc2ccccc2NC3c2cccc(C)c2)cc1 (stereo not given)          active
4  COC(=O)C1=C(C)NC2=C(C(=O)CC(c3ccc(OC)c(OC)c3)C2)C1c1ccc(OC)c(OC)c1 (stereo not given)        inactive
5  COc1ccc(C2CC(=O)C3=C(C2)Nc2ccccc2NC3c2cc(F)ccc2F)cc1 (stereo not given)        inactive

Exam item: Look up the recorded call for O=C(Nc1nc(-c2ccc3ccccc3c2)cs1)c1ccc(Cl)cc1[N+](=O)[O-] in this test.
Marked response: inactive

Exam item: Also need COC(=O)C1=C(C)NC2=C(C(=O)CC(c3ccccc3)C2)C1c1cccc(I)c1 (stereo not given) , thanks.
Marked response: inactive

Exam item: Request: O=C(NC(NC(=S)N1CCOCC1)C(Cl)(Cl)Cl)c1cccc([N+](=O)[O-])c1 (stereo not given)
Marked response: inactive

Exam item: Now consider Cc1cc(=O)oc2cc(OCC(=O)OCc3ccccc3)ccc12 and answer again.
Marked response: inactive

Exam item: Item: COc1ccc(C2CC(=O)C3=C(C2)Nc2ccccc2NC3c2cccc(Cl)c2)cc1 (stereo not given)
Marked response: inactive
